We begin with a simple list: items and their reported IC50.
Test system: 3T3-GFP cells
Protocol: Scratch wound closure assay, 3T3-GFP
Assay type: cell-based
Assay conditions: wound closure after 24 h, 10% FCS, tested 3.125 μM to 100 μM

[
  {
    "Compound": "CC(C)(C)OC(=O)NCCCN1CCN(CCCN2C(=O)c3cccc4cccc(c34)C2=O)CC1",
    "Readout units": "µM",
    "Comparator": "=",
    "IC50": 250
  },
  {
    "Compound": "CC(C)(C)OC(=O)NCCCN1CCN(CCCNC(=O)c2ccccc2)CC1",
    "Readout units": "µM",
    "Comparator": ">",
    "IC50": 50
  },
  {
    "Compound": "CC(C)(C)OC(=O)NCCCN1CCN(CCCNS(=O)(=O)c2cccc3ccccc23)CC1",
    "Readout units": "µM",
    "Comparator": ">",
    "IC50": 50
  },
  {
    "Compound": "CN(C)c1cccc2c(S(=O)(=O)NCCCCCN)cccc12 [dansylcadaverine, monodansylcadaverine, reference compound]",
    "Readout units": "µM",
    "Comparator": ">",
    "IC50": 50
  },
  {
    "Compound": "CN(C)CCCNS(=O)(=O)c1cccc2c(N(C)C)cccc12",
    "Readout units": "µM",
    "Comparator": "=",
    "IC50": 150
  },
  {
    "Compound": "CN(C)c1cccc2c(S(=O)(=O)NCCOCCO)cccc12",
    "Readout units": "µM",
    "Comparator": ">",
    "IC50": 50
  },
  {
    "Compound": "CC(C)(C)OC(=O)NCCCNCCCN1C(=O)c2cccc3cc([N+](=O)[O-])cc(c23)C1=O",
    "Readout units": "µM",
    "Comparator": ">",
    "IC50": 50
  },
  {
    "Compound": "NCCCCCCNS(=O)(=O)c1cccc2c(Cl)cccc12 [Compound W7, reference compound]",
    "Readout units": "µM",
    "Comparator": "=",
    "IC50": 35
  },
  {
    "Compound": "CN(C)c1cccc2c(S(=O)(=O)NCCCN3CCN(CCCNC(=O)OC(C)(C)C)CC3)cccc12",
    "Readout units": "µM",
    "Comparator": "=",
    "IC50": 25
  },
  {
    "Compound": "CN(C)c1cccc2c(S(=O)(=O)N3CCN(CCOCCO)CC3)cccc12",
    "Readout units": "µM",
    "Comparator": ">",
    "IC50": 50
  },
  {
    "Compound": "NCCCN1C(=O)c2cccc3cccc(c23)C1=O",
    "Readout units": "µM",
    "Comparator": ">",
    "IC50": 50
  },
  {
    "Compound": "NCCCN1CCN(CCCN2C(=O)c3cccc4cccc(c34)C2=O)CC1",
    "Readout units": "µM",
    "Comparator": "=",
    "IC50": 40
  },
  {
    "Compound": "CC(C)(C)OC(=O)NCCCN1CCN(CCCNC(=O)OCc2ccc([N+](=O)[O-])cc2)CC1",
    "Readout units": "µM",
    "Comparator": ">",
    "IC50": 50
  },
  {
    "Compound": "CN(C)c1ccc2c3c(cccc13)C(=O)N(CCCNCCCNC(=O)OC(C)(C)C)C2=O",
    "Readout units": "µM",
    "Comparator": "=",
    "IC50": 50
  },
  {
    "Compound": "O=C1c2cccc3cc([N+](=O)[O-])cc(c23)C(=O)N1CCCNCCCN1C(=O)c2cccc3cc([N+](=O)[O-])cc(c23)C1=O",
    "Readout units": "µM",
    "Comparator": "=",
    "IC50": 25
  },
  {
    "Compound": "Cc1ccc(S(=O)(=O)NCCCN2CCN(CCCNC(=O)OC(C)(C)C)CC2)cc1",
    "Readout units": "µM",
    "Comparator": ">",
    "IC50": 50
  },
  {
    "Compound": "CN(C)c1cccc2c(S(=O)(=O)NCCCNS(=O)(=O)c3cccc4c(N(C)C)cccc34)cccc12",
    "Readout units": "µM",
    "Comparator": "=",
    "IC50": 40
  },
  {
    "Compound": "CC(C)(C)OC(=O)NCCCN1CCN(CCCN2C(=O)c3cccc4cc([N+](=O)[O-])cc(c34)C2=O)CC1",
    "Readout units": "µM",
    "Comparator": ">",
    "IC50": 100
  },
  {
    "Compound": "CN(C)c1cccc2c(S(=O)(=O)NCCCO)cccc12",
    "Readout units": "µM",
    "Comparator": ">",
    "IC50": 50
  }
]
